system name: human recombinant PDE9 protein (Homo sapiens, UniProt O76083)
Construct: made in house; host or cells: COS-1 cells, transient transfection with pcDNA 3.1 (+); supernatant of the homogenate, not purified
Sequence (O76083 whole entry): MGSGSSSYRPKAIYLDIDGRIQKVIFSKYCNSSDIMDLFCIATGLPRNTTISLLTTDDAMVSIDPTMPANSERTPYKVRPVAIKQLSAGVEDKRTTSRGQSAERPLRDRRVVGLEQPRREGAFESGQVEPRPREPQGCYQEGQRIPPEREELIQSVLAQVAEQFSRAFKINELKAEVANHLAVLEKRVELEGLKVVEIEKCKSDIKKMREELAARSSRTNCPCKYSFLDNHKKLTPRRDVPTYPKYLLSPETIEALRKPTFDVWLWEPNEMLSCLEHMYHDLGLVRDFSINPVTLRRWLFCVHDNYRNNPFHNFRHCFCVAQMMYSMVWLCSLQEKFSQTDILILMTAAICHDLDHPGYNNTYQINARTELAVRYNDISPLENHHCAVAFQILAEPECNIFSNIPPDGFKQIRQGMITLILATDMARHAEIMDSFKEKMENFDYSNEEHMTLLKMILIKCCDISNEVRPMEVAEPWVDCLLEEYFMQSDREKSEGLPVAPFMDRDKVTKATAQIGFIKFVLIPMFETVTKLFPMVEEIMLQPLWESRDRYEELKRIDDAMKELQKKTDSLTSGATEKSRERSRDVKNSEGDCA
experiment summary: Measurement of PDE9-inhibiting activity ([3H]-cGMP hydrolysis)
Format: biochemical
condition notes: Table B; read-out: Inhibiting Activity IC50 PDE9
pIC50: −log10 of the molar value.
parameter measured: pIC50

O=C(O)c1ccc2c(=O)[nH]c(Cc3ccc(Cl)c(Cl)c3)nc2c1: 7.46
COc1ccccc1Cc1nc2cc(C(=O)O)ccc2c(=O)[nH]1: 5.89
O=C(O)c1ccc2c(=O)[nH]c(Cc3cccs3)nc2c1: 7.03
O=C(O)c1ccc2c(=O)[nH]c(Cc3cccc(Cl)c3)nc2c1: 7.74
Cn1c(Cc2cccc(Cl)c2)nc2cc(C(=O)O)ccc2c1=O: 5.33
O=C(O)c1ccc2c(=O)[nH]c(Cc3ccccn3)nc2c1: 5.89
